# credit: the RNAGym collection of RNA variant scans (doi:10.7554/elife.80360)

B1: HDV Ribozyme (parent)
chain: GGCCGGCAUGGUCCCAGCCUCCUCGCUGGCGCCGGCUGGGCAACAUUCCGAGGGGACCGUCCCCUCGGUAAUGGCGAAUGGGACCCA

variants of: B1; assay: self-cleavage, relative activity (ratio to wild type); higher = more cleavage; co-transcriptional
Measured self-cleavage, listed per entry.
recorded-metric: self-cleavage

INSERT INTO assay_data (seq_text, recorded_metric, value_observed) VALUES
  ('GGCCGGAAUGGUCCCAGCCUCCUCGCUGGCGCCGGCUGGGCAACAUUCCGAGGGGACCGUCCCCUCGGUAACGGCGAAUGGGACCCA [C7A U72C]', 'self-cleavage', 0.196),
  ('GGCCGGCAUGGUCCCAGCCUCCUCGCUGGCGCCGGCUGGGCAACAUUCCGAGGGGACCGUCCCCUCGGUAAUGGCGAAUGGGAGCCA [C84G]', 'self-cleavage', 0.688),
  ('GGCCGGCAUGGUCCCAGCCUCCUCGCUGGCGCCGGCUGGGCAACAAUCCGAGUGGACCGUCCCCUCGGUAAUGGCGAAUGGGACCCA [U46A G53U]', 'self-cleavage', 0.712);
